target: human TLR8 (Homo sapiens (Human)); assay: TLR8 inhibition reporter assay (HEK-Blue SEAP reporter, R848 stimulation); details: read-out: TLR8 IC50; HEK-Blue cells overexpressing human TLR8, R848 15.9 μM, SEAP reporter;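 further: SEAP driven by IFN-β minimal promoter with NF-κB and AP-1 sites, 22 h incubation, compounds 0.05 nM–50 µM, inhibition scaled between agonist plus DMSO and reference inhibitor wells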
Sequence (Q9NR97 27-1041): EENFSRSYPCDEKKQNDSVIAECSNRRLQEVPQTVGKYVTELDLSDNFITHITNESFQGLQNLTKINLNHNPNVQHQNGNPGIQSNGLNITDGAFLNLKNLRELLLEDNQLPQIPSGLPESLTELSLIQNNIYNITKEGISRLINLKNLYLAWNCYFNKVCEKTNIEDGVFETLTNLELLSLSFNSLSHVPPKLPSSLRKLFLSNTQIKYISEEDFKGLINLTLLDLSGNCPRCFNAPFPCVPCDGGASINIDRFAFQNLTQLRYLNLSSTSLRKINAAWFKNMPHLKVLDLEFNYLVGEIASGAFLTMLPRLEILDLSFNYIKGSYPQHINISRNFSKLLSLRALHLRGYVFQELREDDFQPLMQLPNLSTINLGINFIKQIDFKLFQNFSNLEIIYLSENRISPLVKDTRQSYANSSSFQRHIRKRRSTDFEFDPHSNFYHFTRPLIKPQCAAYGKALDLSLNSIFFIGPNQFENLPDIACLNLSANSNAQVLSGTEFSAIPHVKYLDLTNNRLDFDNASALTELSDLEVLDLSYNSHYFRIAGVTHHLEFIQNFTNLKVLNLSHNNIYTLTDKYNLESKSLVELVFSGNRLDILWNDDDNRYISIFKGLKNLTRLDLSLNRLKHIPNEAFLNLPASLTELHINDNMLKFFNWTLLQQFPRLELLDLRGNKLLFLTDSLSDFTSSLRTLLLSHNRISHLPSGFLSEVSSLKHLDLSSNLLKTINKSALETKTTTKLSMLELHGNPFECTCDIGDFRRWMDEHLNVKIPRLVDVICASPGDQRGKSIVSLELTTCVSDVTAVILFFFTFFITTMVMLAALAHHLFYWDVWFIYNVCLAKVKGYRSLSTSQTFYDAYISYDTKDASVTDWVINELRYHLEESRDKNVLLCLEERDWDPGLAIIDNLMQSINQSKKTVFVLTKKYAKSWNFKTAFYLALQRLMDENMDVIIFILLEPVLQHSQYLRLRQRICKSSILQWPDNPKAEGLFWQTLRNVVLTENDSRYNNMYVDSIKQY
quantityMeasured: pIC50
# pIC50 is unitless: minus log10 of the molar concentration; print number only

Query :: What value of measured pIC50 is listed for `Cc1cc(-c2[nH]c3ccc(C(C)(C)C(=O)NCC4CCNCC4)cc3c2C(C)C)ccn1` ?
Result :: 6.21

Query :: GET /values?readout=pIC50&item= Cc1cc(-c2[nH]c3ccc(C(C)C(=O)N[C@H]4CCNC4)cc3c2C(C)C)ccn1 (some centres unmarked) [Example 190]
Result :: 6.68

Query :: May I ask what pIC50 has been recorded for `CCc1c(-c2ccc(OC)c(OC)c2)[nH]c2ccc(C(=O)NC(CO)CO)cc12` ?
Result :: 6.39

Query :: Entry `Cc1cc(-c2[nH]c3ccc(C(C)(C)C(=O)N4CCC5(CCNC5)CC4)cc3c2C(C)C)ccn1` : reported pIC50 = ?
Result :: 5.91

Query :: Tell me the measured pIC50 of `CCc1c(-c2ccc(OC)c(OC)c2)[nH]c2ccc(C(=O)N3CCN(CC)CC3)cc12` , please.
Result :: 8.66

Query :: What value of measured pIC50 is listed for `CCc1c(-c2ccc(OC)c(OC)c2)[nH]c2ccc(C(=O)NCc3ccccn3)cc12` ?
Result :: 6.39

Query :: What measured pIC50 goes with `Cc1cc(-c2[nH]c3ccc(C(=O)N4CCN(Cc5ncn(C)n5)CC4)cc3c2C(C)C)cc(C)n1` ?
Result :: 7.35

Query :: What value of pIC50 has been recorded for this entry: `CCc1c(-c2ccc(OC)c(OC)c2)[nH]c2ccc(C(=O)NCCCN(C)C)cc12`
Result :: 8.12

Cited source: patent US11420973B2
